# experimental.protocol: Solubility at room temperature in water, acid and basic conditions
# Type: physicochemical
# conditions: free acid, below HPLC detection limit, read-out: intrinsic solubility of the free acid
measured.quantity: solubility

Input line: Item `O=C(O)c1ccc(CCCc2c(CCNS(=O)(=O)Cc3ccccc3C(F)(F)F)n(C(c3ccccc3)c3ccccc3)c3ccc(Cl)cc23)cc1` has what recorded solubility?
Output line: < 0.031 µg/mL
